# Assay System: T1, Human CD3 epsilon (CD3epsilon) protein (His Tag) (human, UniProt P07766 23-126)
# T1 construct: extracellular domain; Bought protein; also called recombinant human CD3epsilon ECD; not shown: His tag
# T1 sequence (P07766 23-126): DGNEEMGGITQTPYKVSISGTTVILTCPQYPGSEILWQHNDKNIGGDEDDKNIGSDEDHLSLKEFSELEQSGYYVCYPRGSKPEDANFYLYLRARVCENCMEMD
# Protocol Text: ELISA, antigen coated on plate, HRP-labelled 2nd antibody
# Experimental: Human CD3epsilon, CD3delta and CD3gamma proteins were pre-coated in 96-well plates, respectively. The binding affinity of eight mAbs at various concentrations to these three different CD3 protein extracellular domain was detected by corresponding HRP labeled 2nd antibodies. The binding EC₅₀ (concentration of the test antibody when reaching half maximum binding) were analyzed by using GraphPad Prism software equation: Nonlinear regression (curve fit)—log (agonist) vs. response-Variable slope.
Endpoint Name: ELISA (A450)
Write the value in A450 as a bare number.

Find the measured ELISA (A450) of WBP3311_2.383.47 (antibody, V domains shown, Mouse monoclonal antibody from hybridoma) VH: QVQLQQSGPELVKPGASVRISCKTSGFTFTNYYIHWVIQRPGQGLEWIGWISPENGNTKYNENFQDKATLTADISSSTAYMHLSSLTSEDSAVYFCARDGYSLYYFDYWGQGTTLTVSS VL: DIVMSQSPSSLTVSAGEKVTMSCKSSQSLLNSRTRKNYLAWYQQKPGQSPKLLIYWASIRVSGVPDRFTGSGSGTTFTLTISGVQAEDLAVYYCTQSHTLRTFGGGTKLEIK and report it.
1.61

# return recorded ELISA (A450) for entry WBP3311_2.306.4 (antibody, IgG2b, V domains shown, Mouse monoclonal antibody from hybridoma; also called W3311-2.306.4; W3311-2.306.4-mIgG2bK) VH: QVQLQQSGPELVKPGASVRISCKASGFAFTDYYIHWVKQRPGQGLEWIGWISPGNVNTKYNENFKGRATLTADLSSSTAYMQLSSLTSEDSAVYFCARDGYSLYYFDYWGQGTTLTVSS VL: DIVMSQSPSSLTVSAGEKVTMSCKSSQSLLNSRTRKNYLAWYQQKPGQSPKLLIYWASTRQSGVPDRFTGSGSGTAFTLTISGVQAEDLAVYFCTQSHTLRTFGGGTKLEIK
1.46

Supply measured ELISA (A450) of WBP3311_2.482.5 (antibody, V domains shown, Mouse monoclonal antibody from hybridoma; also called W3311-2.482.5) VH: QVQLQQSGPELVKPGSSVKISCKPSGYTFTTYYIHWVKQRPGQGLEWIGWIFPGSDNIKYNENFKDKATLTADTSSSTAYMQLSSLTSEDSAVYFCARDSVSRYYFDYWGQGTILTVSS VL: DIVMSQSPSSLAVSAGEKVTMSCKSSQSLVNDRTRKNYLAWYQQKPGLSPKLLIYWASTRESGVPDRFTGSGSGTDFTLTISSVQAEDLAVYYCAQSFILRTFGGGTKLEIK in your reply.
1.33

Given the binder WBP3311_2.400.5 (antibody, V domains shown, Mouse monoclonal antibody from hybridoma; also called W3311-2.400.5) VH: QVQLQQSGPELVNPGASVKISCKASGYSFTNYYLHWVKQRPGQGLEWIGWIFPESDNTKYNEKLKGKATLTADTSSDTAYMHLSSLTFEDSAVYFCARDSVGNYFFDFWGQGTTLTVSS VL: DIVMSQSPSSLAVSAGEKVTMRCKSSQSLVNNRTRKNYLAWYQQKPGQPPKLLIYWASTRESGVPDRFTGSGSGTDFTLTISSVQAEDLAVYYCAQSFILRTFGGGTKLEIK , write its reported ELISA (A450).
1.57

Provenance of the data: patent US20200299384A1
